Assay: Cytotoxicity against human HCT116 cells at 50 uM after 48 hrs by MTT assay
Format: functional
Reported Conditions: HCT-116, 48 h, read-out: GI
Value Type: inhibition of growth at 50 µM (%)
Please reply with the bare figure in % and do not write the unit itself.

- Compound: "C[C@H]1[C@H](C)CC[C@]2(C(=O)O)CC[C@]3(C)C(=CC[C@@H]4[C@@]5(C)C/C(=C\\c6ccc(Cl)cc6)C(=O)C(C)(C)[C@@H]5CC[C@]43C)[C@H]12"
  Display Unit: "%"
  inhibition of growth at 50 µM: 99
- Compound: "C[C@H]1[C@H](C)CC[C@]2(C(=O)O)CC[C@]3(C)C(=CC[C@@H]4[C@@]5(C)C/C(=C\\c6ccccc6[N+](=O)[O-])C(=O)C(C)(C)[C@@H]5CC[C@]43C)[C@H]12"
  Display Unit: "%"
  inhibition of growth at 50 µM: 91

IN: What value of measured inhibition of growth at 50 µM is listed for C[C@H]1[C@H](C)CC[C@]2(C(=O)O)CC[C@]3(C)C(=CC[C@@H]4[C@@]5(C)C/C(=C\c6cccc7ccccc67)C(=O)C(C)(C)[C@@H]5CC[C@]43C)[C@H]12 ?
OUT: 99

IN: Find the recorded inhibition of growth at 50 µM belonging to C[C@H]1[C@H](C)CC[C@]2(C(=O)O)CC[C@]3(C)C(=CC[C@@H]4[C@@]5(C)C/C(=C\C=C\c6ccccc6)C(=O)C(C)(C)[C@@H]5CC[C@]43C)[C@H]12 and report it.
OUT: 98

IN: // returns reported inhibition of growth at 50 µM for input C[C@H]1[C@H](C)CC[C@]2(C(=O)O)CC[C@]3(C)C(=CC[C@@H]4[C@@]5(C)C/C(=C\c6ccc([N+](=O)[O-])cc6[N+](=O)[O-])C(=O)C(C)(C)[C@@H]5CC[C@]43C)[C@H]12
OUT: 98

IN: I'd like to know its inhibition of growth at 50 µM. The compound in question is COc1cc(OC)c(OC)cc1/C=C1\C[C@]2(C)[C@H]3CC=C4[C@@H]5[C@@H](C)[C@H](C)CC[C@]5(C(=O)O)CC[C@@]4(C)[C@]3(C)CC[C@H]2C(C)(C)C1=O
OUT: 85

IN: Any idea what inhibition of growth at 50 µM was measured for C[C@H]1[C@H](C)CC[C@]2(C(=O)O)CC[C@]3(C)C(=CC[C@@H]4[C@@]5(C)CC[C@H](O)C(C)(C)[C@@H]5CC[C@]43C)[C@H]12 [URSOLIC ACID] ?
OUT: 53

IN: Fill blank: measured inhibition of growth at 50 µM of the compound C[C@H]1[C@H](C)CC[C@]2(C(=O)O)CC[C@]3(C)C(=CC[C@@H]4[C@@]5(C)CCC(=O)C(C)(C)[C@@H]5CC[C@]43C)[C@H]12 [URSONIC ACID] is ____.
OUT: 53

----------
System: MCF7
Assay: Cytotoxicity against human MCF7 cells after 48 hrs by MTT assay
Format: functional, cell-based
Reported Conditions: MCF7, 48 h
# note: exactly 6 µM is not below, so it is false; use true for IC50 strictly under it

Observe how each entry below is paired with its result.
- Structure String: "O=c1[nH]cc(F)c(=O)[nH]1"
  Class: "true"
- Structure String: "C[C@H]1[C@H](C)CC[C@]2(C(=O)O)CC[C@]3(C)C(=CC[C@@H]4[C@@]5(C)C/C(=C\\c6cc(O)ccc6O)C(=O)C(C)(C)[C@@H]5CC[C@]43C)[C@H]12"
  Class: "true"
- Structure String: "C[C@H]1[C@H](C)CC[C@]2(C(=O)O)CC[C@]3(C)C(=CC[C@@H]4[C@@]5(C)C/C(=C\\c6ccc(O)cc6)C(=O)C(C)(C)[C@@H]5CC[C@]43C)[C@H]12"
  Class: "true"

IN: Find out if reported IC50 for C[C@H]1[C@H](C)CC[C@]2(C(=O)O)CC[C@]3(C)C(=CC[C@@H]4[C@@]5(C)C/C(=C\c6ccccc6)C(=O)C(C)(C)[C@@H]5CC[C@]43C)[C@H]12 is less than 6 µM
OUT: false

IN: A record lists COc1cccc(/C=C2\C[C@]3(C)[C@H]4CC=C5[C@@H]6[C@@H](C)[C@H](C)CC[C@]6(C(=O)O)CC[C@@]5(C)[C@]4(C)CC[C@H]3C(C)(C)C2=O)c1 . Is its IC50 below 6 µM?
OUT: true

IN: In plain terms, does C[C@H]1[C@H](C)CC[C@]2(C(=O)O)CC[C@]3(C)C(=CC[C@@H]4[C@@]5(C)C/C(=C\c6cccc7ccccc67)C(=O)C(C)(C)[C@@H]5CC[C@]43C)[C@H]12 come in under 6 µM for IC50?
OUT: false

----------
Assay: Cytotoxicity against human FR2 cells after 48 hrs by MTT assay
Type: cell-based
Reported Conditions: FR2, 48 h
Value Type: pIC50
Scale explanation: pIC50 corresponds to minus log10 of a concentration expressed in moles per litre.

Solved cases (2 shown):
- Structure String: "C[C@H]1[C@H](C)CC[C@]2(C(=O)O)CC[C@]3(C)C(=CC[C@@H]4[C@@]5(C)CCC(=O)C(C)(C)[C@@H]5CC[C@]43C)[C@H]12"
  pIC50: 4.62
- Structure String: "C[C@H]1[C@H](C)CC[C@]2(C(=O)O)CC[C@]3(C)C(=CC[C@@H]4[C@@]5(C)C/C(=C\\c6ccc(O)cc6)C(=O)C(C)(C)[C@@H]5CC[C@]43C)[C@H]12"
  pIC50: 4.15

Now for the compound whose pIC50 we want.
IN: Looking for the measured pIC50 of COc1ccccc1/C=C1\C[C@]2(C)[C@H]3CC=C4[C@@H]5[C@@H](C)[C@H](C)CC[C@]5(C(=O)O)CC[C@@]4(C)[C@]3(C)CC[C@H]2C(C)(C)C1=O , can you help?
OUT: 5.07

----------
System: A549
Assay: Cytotoxicity against human A549 cells at 50 uM after 48 hrs by MTT assay
Format: functional
Reported Conditions: A549, 48 h, read-out: GI
Value Type: inhibition of growth at 50 µM (%)
Just the number in %, nothing appended.

- Molecule: "C[C@H]1[C@H](C)CC[C@]2(C(=O)O)CC[C@]3(C)C(=CC[C@@H]4[C@@]5(C)C/C(=C\\c6cc(O)ccc6O)C(=O)C(C)(C)[C@@H]5CC[C@]43C)[C@H]12"
  Result: 93
- Molecule: "C[C@H]1[C@H](C)CC[C@]2(C(=O)O)CC[C@]3(C)C(=CC[C@@H]4[C@@]5(C)C/C(=C\\c6ccccc6[N+](=O)[O-])C(=O)C(C)(C)[C@@H]5CC[C@]43C)[C@H]12"
  Result: 64
- Molecule: "C[C@H]1[C@H](C)CC[C@]2(C(=O)O)CC[C@]3(C)C(=CC[C@@H]4[C@@]5(C)C/C(=C\\c6cccc7ccccc67)C(=O)C(C)(C)[C@@H]5CC[C@]43C)[C@H]12"
  Result: 58
- Molecule: "C[C@H]1[C@H](C)CC[C@]2(C(=O)O)CC[C@]3(C)C(=CC[C@@H]4[C@@]5(C)CCC(=O)C(C)(C)[C@@H]5CC[C@]43C)[C@H]12 [URSONIC ACID]"
  Result: 78
- Molecule: "COc1cc(/C=C2\\C[C@]3(C)[C@H]4CC=C5[C@@H]6[C@@H](C)[C@H](C)CC[C@]6(C(=O)O)CC[C@@]5(C)[C@]4(C)CC[C@H]3C(C)(C)C2=O)cc(OC)c1OC"
  Result: 99
- Molecule: "C[C@H]1[C@H](C)CC[C@]2(C(=O)O)CC[C@]3(C)C(=CC[C@@H]4[C@@]5(C)C/C(=C\\c6ccc7ccccc7c6)C(=O)C(C)(C)[C@@H]5CC[C@]43C)[C@H]12"
  Result: 60

IN: Recorded inhibition of growth at 50 µM of COc1ccccc1/C=C1\C[C@]2(C)[C@H]3CC=C4[C@@H]5[C@@H](C)[C@H](C)CC[C@]5(C(=O)O)CC[C@@]4(C)[C@]3(C)CC[C@H]2C(C)(C)C1=O , please.
OUT: 90

IN: Would you kindly share the measured inhibition of growth at 50 µM for C[C@H]1[C@H](C)CC[C@]2(C(=O)O)CC[C@]3(C)C(=CC[C@@H]4[C@@]5(C)C/C(=C\c6cccc(Cl)c6)C(=O)C(C)(C)[C@@H]5CC[C@]43C)[C@H]12 ?
OUT: 65

----------
IC50 values for the compounds below.
Tested on: MCF7
Assay: Cytotoxicity against human MCF7 cells after 48 hrs by MTT assay
Format: functional, cell-based
Reported Conditions: MCF7, 48 h

Here's what some known entries look like.
- Structure String: "C[C@H]1[C@H](C)CC[C@]2(C(=O)O)CC[C@]3(C)C(=CC[C@@H]4[C@@]5(C)C/C(=C\\c6ccc(Br)cc6)C(=O)C(C)(C)[C@@H]5CC[C@]43C)[C@H]12"
  Value Type: "IC50"
  Result: "5 µM"
- Structure String: "C[C@H]1[C@H](C)CC[C@]2(C(=O)O)CC[C@]3(C)C(=CC[C@@H]4[C@@]5(C)C/C(=C\\C=C\\c6ccccc6)C(=O)C(C)(C)[C@@H]5CC[C@]43C)[C@H]12"
  Value Type: "IC50"
  Result: "12 µM"
- Structure String: "C[C@H]1[C@H](C)CC[C@]2(C(=O)O)CC[C@]3(C)C(=CC[C@@H]4[C@@]5(C)C/C(=C\\c6ccc7ccccc7c6)C(=O)C(C)(C)[C@@H]5CC[C@]43C)[C@H]12"
  Value Type: "IC50"
  Result: "21 µM"
- Structure String: "C[C@H]1[C@H](C)CC[C@]2(C(=O)O)CC[C@]3(C)C(=CC[C@@H]4[C@@]5(C)C/C(=C\\c6ccc(Cl)cc6)C(=O)C(C)(C)[C@@H]5CC[C@]43C)[C@H]12"
  Value Type: "IC50"
  Result: "4.1 µM"

Now look at this one.
IN: Request body: readout IC50, system MCF7, query COc1cc(OC)c(OC)cc1/C=C1\C[C@]2(C)[C@H]3CC=C4[C@@H]5[C@@H](C)[C@H](C)CC[C@]5(C(=O)O)CC[C@@]4(C)[C@]3(C)CC[C@H]2C(C)(C)C1=O . Return the value.
OUT: 20 µM
